- Tested on: Escherichia coli TOP10;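 note: peptides expressed intracellularly from a pBAD plasmid library in pooled LB shake-flask culture, induced with 0.3% L-arabinose, DNA abundance read by NGS, three biological replicates, DESeq2 with apeglm shrinkage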
- Assay Method Text: shrunken log2 fold change of peptide-encoding DNA abundance (4.5 h post-induction vs induction); higher = less antimicrobial activity (less host growth inhibition)
- Applied Conditions: time post-induction: 4.5 h; library: site-saturation at positions 5, 18, 19, 20
Observable: shrunken log2 fold change
Just the number, please, no unit after it.

Q: Looking for the measured shrunken log2 fold change of "RRIRFRPPRLPRPRPRPCAKPRP" , can you help?
A: -0.0688

Q: Would you kindly repeat that for "RRIRVRPPRLPRPRPRPTHWPRP" ?
A: 0.509

Q: Would you kindly repeat that for "RRIRYRPPRLPRPRPRPCRPPRP" ?
A: -0.0124

Q: Would you kindly repeat that for "RRIRWRPPRLPRPRPRPTTFPRP" ?
A: -0.09

Q: Would you kindly repeat that for "RRIRVRPPRLPRPRPRPENEPRP" ?
A: -0.0631

Q: Would you kindly repeat that for "RRIRTRPPRLPRPRPRPLYHPRP" ?
A: -0.48

Q: Would you kindly repeat that for "RRIRMRPPRLPRPRPRPQRPPRP" ?
A: 0.389

Q: Would you kindly repeat that for "RRIRERPPRLPRPRPRPATDPRP" ?
A: -0.00755

Q: Would you kindly repeat that for "RRIRLRPPRLPRPRPRPFIRPRP" ?
A: -0.245

Q: Would you kindly repeat that for "RRIRPRPPRLPRPRPRPIPEPRP" ?
A: 1.27

Q: Would you kindly repeat that for "RRIRNRPPRLPRPRPRPNMKPRP" ?
A: -0.48

Q: Would you kindly repeat that for "RRIRWRPPRLPRPRPRPCYPPRP" ?
A: -0.466

Q: Would you kindly repeat that for "RRIRTRPPRLPRPRPRPRPDPRP" ?
A: 1.44

Q: Would you kindly repeat that for "RRIRDRPPRLPRPRPRPPSLPRP" ?
A: -0.128

Q: Would you kindly repeat that for "RRIRHRPPRLPRPRPRPHFGPRP" ?
A: -0.00776

Q: Would you kindly repeat that for "RRIRRRPPRLPRPRPRPEFVPRP" ?
A: -0.0836

Q: Would you kindly repeat that for "RRIRWRPPRLPRPRPRPFAYPRP" ?
A: -0.304

Q: Would you kindly repeat that for "RRIRIRPPRLPRPRPRPGCFPRP" ?
A: -0.0641

Q: Would you kindly repeat that for "RRIRVRPPRLPRPRPRPVDTPRP" ?
A: -0.18

Q: Would you kindly repeat that for "RRIRKRPPRLPRPRPRPDQIPRP" ?
A: -0.0414

Q: Would you kindly repeat that for "RRIRWRPPRLPRPRPRPNKVPRP" ?
A: -0.129

Q: Would you kindly repeat that for "RRIRLRPPRLPRPRPRPVYRPRP" ?
A: -0.548
